EXPERIMENTAL_TARGET: cruzain (Trypanosoma cruzi, UniProt P25779)
Construct: made in house; host or cells: Escherichia coli (strain M15)
Sequence (P25779 123-337 limits assumed): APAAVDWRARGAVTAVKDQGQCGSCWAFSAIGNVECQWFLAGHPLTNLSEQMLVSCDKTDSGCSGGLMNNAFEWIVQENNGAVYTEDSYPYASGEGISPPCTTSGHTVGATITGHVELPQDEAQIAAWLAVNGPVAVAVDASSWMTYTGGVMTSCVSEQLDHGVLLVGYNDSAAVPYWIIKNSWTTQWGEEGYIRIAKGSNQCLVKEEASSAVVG
TEST_METHOD_NOTES: Cruzain enzyme inhibition assay (cleavage of fluorogenic substrate Z-FR-AMC)
Type: biochemical
MEASUREMENT_PARAMETERS: Table S2; substrate 5 µM; read-out: IC50 (µM) cruzain at [S] 5 µM
Method: Pro-cruzain truncated at the C-terminus was expressed and purified using a previously described protocol ([Ferreira et al., 2019]). Escherichia coli (strain M15) cultures were grown overnight at 37°C and 200 rpm in Luria Bertani (LB) medium supplemented with ampicillin (100 μg/ml) and kanamycin (50 μg/ml). […]
ENDPOINT_NAME: IC50 (µM)
Numbers only, in µM.

MOLECULE: O=C(COc1ccccc1)NCCc1nc2ccccc2n1Cc1ccccc1 [Compound 26]
ENDPOINT_NAME: IC50
OBSERVED_RESULT: 1.8

Here are 3 molecules. What values of IC50 were reported for them?
1. C=CCCn1c(CCNC(=O)COc2ccccc2)nc2ccccc21 [Compound 27]
2. O=C(COc1ccccc1)NCCc1nc2ccccc2n1CCCOc1ccccc1 [Compound 24]
3. O=C(COc1ccccc1)NCCc1nc2ccccc2n1CCOc1ccccc1 [Compound 20]

[7.5, 2.2, 0.4]

----------
TEST_METHOD_NOTES: In vivo pharmacokinetics in male CD1 mice
Design: species or system mouse
MEASUREMENT_PARAMETERS: male, CD1, mouse, plasma, 0.5 mg/kg; Table S6; PO, mice
Please respond with reported Cmax for every item in the list.
Answers are plain numbers, in ng/mL.

COMPOUND: CC(=O)Nc1ccc(OCC(=O)NCCc2nc3ccccc3[nH]2)cc1 [Compound 2]
OBSERVED_RESULT: 54
//
COMPOUND: O=C(Cn1ccnc1[N+](=O)[O-])NCc1ccccc1 [BZ, benznidazole, reference compound]
OBSERVED_RESULT: 404
//
COMPOUND: O=C(COc1cccc([N+](=O)[O-])c1)NCCc1nc2ccccc2[nH]1 [Compound 8]
OBSERVED_RESULT: 61
//
COMPOUND: NC(=O)Cn1c(CCNC(=O)COc2ccccc2)nc2ccccc21 [Compound 28]
OBSERVED_RESULT: 275
//
COMPOUND: CC(=O)Nc1cccc(OCC(=O)NCCc2nc3ccccc3[nH]2)c1 [Compound 3]
OBSERVED_RESULT: 9

Now turn to the next compound.
// lookup Cmax for O=C(COc1ccccc1)NCCc1nc2ccccc2[nH]1 [Compound 1] 21

----------
I'd be grateful if you could share measured CLint (L/h/kg) Mouse for these entries.
TEST_METHOD_NOTES: In vitro metabolic stability in mouse liver microsomes
Type: in vitro ADME
MEASUREMENT_PARAMETERS: Table S5
One number for each entry, in L/h/kg.

Recorded results for 2 compounds are shown here.
SMILES_REPR: O=C(COc1ccc2ccccc2c1Br)NCCc1nc2cc(Cl)ccc2[nH]1
CLint (L/h/kg) Mouse: 407.00
//
SMILES_REPR: Cc1ccc2[nH]c(CCNC(=O)COc3ccc4ccccc4c3Br)nc2c1
CLint (L/h/kg) Mouse: 528.00

Provide the reported CLint (L/h/kg) Mouse of each entry below, same order.
1. COc1cccc(C(=O)CCn2c(CCNC(=O)COc3ccc4ccccc4c3Br)nc3ccccc32)c1
2. CC(=O)NCCc1nc2ccccc2n1CCOc1ccccc1
3. O=C(CCOc1ccccc1)NCCc1nc2ccccc2[nH]1
4. O=C(COc1ccc2ccccc2c1CO)NCCc1nc2ccccc2[nH]1

331.00
35.90
86.20
757.00

Provide reported CLint (L/h/kg) Mouse for each item, in the same order as listed.
1. CC(=O)Nc1ccccc1OCC(=O)NCCc1nc2ccccc2[nH]1
2. O=Cc1c(OCC(=O)NCCc2nc3ccccc3[nH]2)ccc2ccccc12
3. Cc1cc(C)c(C#N)c(SCC(=O)NCCc2c[nH]c3ccccc23)n1
4. O=C(CSc1ccccc1)NCCc1nc2ccccc2[nH]1
5. O=C(COc1ccc2ccccc2c1Br)NCCc1nc2ccccc2n1CCC(=O)c1cccs1
6. CC(=O)NCCc1nc2ccccc2n1CCOCc1ccccc1

1: 10.30; 2: 669.00; 3: 485.00; 4: 234.00; 5: 355.00; 6: 95.10

Could I get CLint (L/h/kg) Mouse for every one of these entries?
1. Cc1ccccc1OCC(=O)NCCc1c[nH]c2ccccc12
2. Nc1ccccc1OCC(=O)NCCc1nc2ccccc2[nH]1
3. O=C(COc1ccccc1I)NCCc1nc2ccccc2[nH]1
4. COc1ccc(C(=O)Cn2c(CCNC(=O)COc3ccc4ccccc4c3Br)nc3ccccc32)cc1
5. O=C(COc1ccc2ccccc2c1)NCCc1nc2ccccc2o1
6. O=C(COc1cccc2ccccc12)NCCc1nc2ccccc2[nH]1
7. O=C(COc1ccccc1F)NCCc1nc2ccccc2[nH]1

[790.00, 24.80, 683.00, 50.10, 618.00, 504.00, 125.00]
